System: LOX IMVI melanoma
protocol_text: NCI-60 one-dose screen, 48 h (100 = growth as untreated, 0 = no growth, -100 = all killed)
measurement_parameters: 10 µM
Compounds without any hit were thinned out: in the full panel of roughly 83,000, 20% have a hit.
For each record, write down the corresponding growth.
The answer is to be given in %; state only the numeric part.

INPUT: Look up growth: "O=C(Nc1ccc(Cl)c([N+](=O)[O-])c1)Nc1nc2ccccc2s1"
OUTPUT: 91.4

INPUT: Quick check: growth of COc1cc2c(cc1OCCCN1CCN(c3ncnc4ccccc34)CC1)N=CC1CCCN1C2=O (stereo not given) ?
OUTPUT: -39.4

INPUT: Data request, read-out growth, for "COc1cc2nc(Nc3cccc(NC(C)=O)c3)nc(N)c2cc1OC"
OUTPUT: 86.7

INPUT: Consider the compound shown here: "COc1cc(C(=O)N2CCN(c3ccccc3OC)CC2)c(N)cc1OCCCN1CCN(c2ccccc2OC)CC1" What is its recorded growth?
OUTPUT: 78.8

INPUT: Data request, read-out growth, for "CC1(C)CCC(=NNC(N)=S)CC1"
OUTPUT: 89

INPUT: Entry under review: "COc1cc(CNc2ccccc2C(=O)N2CCN(C(=O)c3cc(-c4cc(OC)c(OC)c(OC)c4)n4nc(-c5ccccc5)cc4n3)CC2)cc(OC)c1OC" . Reported growth?
OUTPUT: 35.7

INPUT: // lookup growth for "N#CCCN1C/C(=C/c2ccc(Br)cc2)C(=O)/C(=C/c2ccc(Br)cc2)C1"
OUTPUT: -71.3

INPUT: Look at this compound and give its reported growth. "O=[P@@]1(c2ccccc2)O[C@H](COCc2ccccc2)[C@@H](OCc2ccccc2)[C@H](OCc2ccccc2)[C@H]1O"
OUTPUT: 95.7

INPUT: What value of measured growth is listed for "O=C(Nc1cccc(-n2cc(-c3ccncc3)c(-c3ccc(O)c(Cl)c3)n2)c1)c1ccc(N2CCOCC2)c(C(F)(F)F)c1" ?
OUTPUT: 21.1

INPUT: Please report the recorded growth for "O=C(Cc1csc2nc(-c3ccc(Cl)cc3)cn12)N/N=C/c1ccccc1O" .
OUTPUT: 38.6

INPUT: Please report the recorded growth for "CC1(C)N=C(N)N=C(N)N1c1ccc(CCc2ccccc2)c(Cl)c1" .
OUTPUT: 12.6

INPUT: May I ask what growth has been recorded for COc1ccc(-c2nsc3c2NC(=O)CC3c2ccc(F)cc2)cc1 (stereo not given) ?
OUTPUT: 44.4

INPUT: Item "C#Cc1ccc(-n2c(/C=C/c3ccc(C(F)(F)F)cc3)nc3ncccc3c2=O)cc1" has what recorded growth?
OUTPUT: -18

INPUT: # lookup: growth of "COc1cc(NC(=O)CCSc2nc3ccc(C)cc3c(=O)n2Cc2ccccc2)cc(OC)c1OC"
OUTPUT: 71.6

INPUT: Return reported growth; argument: "Cc1cccc2c1O/C(=C\c1ccc([N+](=O)[O-])o1)C2=O"
OUTPUT: -83.6

INPUT: # query: growth of entry CC1CN(Cc2ccccc2)C(=O)NC1=O (stereo not given)
OUTPUT: 103

INPUT: May I ask what growth has been recorded for "COc1ccc(-c2nc3sc(-c4ccccc4)c(-c4ccccc4)n3c2/C=C/C(=O)c2ccccn2)cc1" ?
OUTPUT: 90.5

INPUT: Sample "CC(=O)N1C/C(=C/c2ccc(Cl)cc2)C(=O)/C(=C/c2ccc(Cl)cc2)C1" — what was its growth?
OUTPUT: -79.6

INPUT: Which value of growth has been reported for "COc1ccc(/C=C/C(=O)Nc2ccc(-c3nc4ccc(OC)cc4s3)cc2)cc1" in the records?
OUTPUT: 92.3

INPUT: Look up growth for this compound: "CC(=O)OCc1cc(-c2nc3ccccc3[nH]c2=O)nn1-c1ccc(Cl)cc1"
OUTPUT: 102

* * *

Assignment: determine reported growth for the given molecules.
Tested on: KM12 colon
protocol_text: NCI-60 one-dose screen, 48 h (100 = growth as untreated, 0 = no growth, -100 = all killed)
measurement_parameters: 10 µM
About 83,000 compounds went through this panel and 20% of them were active in at least one assay; those are over-represented in the sample as a whole.
API: value field is a number in %; no unit string.

INPUT: # query: growth | item "Cc1cccc2c(NCCN(C)C)c3cccc(C(=O)NCCN(C)C)c3nc12" | system: KM12 colon
OUTPUT: -27.6

INPUT: Give recorded growth with KM12 colon for the following molecule: "CCOC(=O)c1ccoc1"
OUTPUT: 104

INPUT: Find growth (KM12 colon) for the entry "COC(=O)C(=C\c1ccc2c(c1)OCO2)/C(=C/c1ccc2c(c1)OCO2)C(=O)OC"
OUTPUT: 102

INPUT: Please provide the recorded growth for "CC(C)(C)c1ccc(N2CSC(=S)N(c3ccc(C(C)(C)C)cc3)C2)cc1" , tested on KM12 colon.
OUTPUT: 96.7

INPUT: Item: "COc1ccc(NC(=O)Cc2nc3nc4sc(C)c(C)c4c(=O)n3[nH]2)cc1" Test system: KM12 colon Read-out: growth Value: ?
OUTPUT: 104

INPUT: growth of "COc1cc(-c2cc(C(=O)N3CCN(C(=O)c4ccccc4NCc4cccs4)CC3)nc3cc(-c4ccccc4)nn23)cc(OC)c1OC" on KM12 colon?
OUTPUT: 27.5

INPUT: Provide value of growth for this record tested with KM12 colon: "COc1ccc(-c2nn(-c3cccc(NC(=O)c4ccc5c(c4)OCCO5)c3)cc2-c2ccncc2)cc1Cl"
OUTPUT: 9.37

INPUT: Please tell me: growth of "O=C(c1cccs1)c1ccccc1Cc1ccccc1" , system KM12 colon?
OUTPUT: 104

INPUT: Request body: readout growth, system KM12 colon, query "O=S(=O)(NCCNc1nccc(-c2c(-c3ccc(F)cc3)nc3sccn23)n1)c1ccc2ccccc2c1" . Return the value.
OUTPUT: 75.6

INPUT: Report growth for CCN(CC)CCCC(C)Nc1nc(-c2ccc(OC)cc2)nc2cc(Cl)ccc12 (stereo not given) tested on KM12 colon.
OUTPUT: 66.3

* * *

Test system: LOX IMVI melanoma
protocol_text: NCI-60 one-dose screen, 48 h (100 = growth as untreated, 0 = no growth, -100 = all killed)
measurement_parameters: 10 µM
This is part of a sample that, as a whole, favours compounds with a hit. Of some 83,000 tested, about 20% had one in any assay.
readout_label: growth (%)
Return type: number; implicit unit %.

INPUT: Returns the measured growth for the input compound. Input: "COc1ccc(OC)c(NC(=O)c2sc3nc4c(cc3c2N)C(=O)CCC4)c1"
OUTPUT: 90.8

INPUT: So what does the record say about growth for COc1cc([C@@H]2c3cc4c(cc3C(Br)[C@H]3COC(=O)[C@H]23)OCO4)cc(OC)c1OC (stereo partly drawn) ?
OUTPUT: 23.8

INPUT: Reported growth, compound "COc1ccc(Nc2cc(C)nc(NCCCNc3ccnc4cc(Cl)ccc34)n2)cc1" : ____
OUTPUT: -80

INPUT: I have this compound here, "COc1ccccc1CNCCCN1C(=O)c2ccc3c4c(ccc(c24)C1=O)C(=O)N(CCCN)C3=O" , and I need its recorded growth.
OUTPUT: -61

INPUT: Fill in the blank: the reported growth of "COc1ccc(-c2nn(-c3cccc(NC(=O)c4ccc5c(c4)OCCO5)c3)cc2-c2ccncc2)cc1Cl" is ____.
OUTPUT: 29.9

INPUT: Reported growth, compound "Cc1ccc(NC(=O)Nc2c(Cl)cccc2Cl)cn1" : ____
OUTPUT: 101

INPUT: Name the recorded growth for "Clc1ccccc1N=Cc1ccc2c(c1)OCO2" .
OUTPUT: 98.9

INPUT: growth for "Fc1cc(C(F)(F)F)ccc1-c1cncnc1NC1CCCCCC1" ?
OUTPUT: 98.3

INPUT: Can you look up the measured growth of CCN(CC)CCCC(C)Nc1nc(-c2ccc(OC)cc2)nc2cc(Cl)ccc12 (stereo not drawn) for me?
OUTPUT: 32.8

INPUT: Consider the compound "N=C(N)c1ccc(-c2ccc(-c3cccs3)s2)s1" and give its measured growth.
OUTPUT: -75.7

INPUT: May I ask what growth has been recorded for Nc1ccc2c(c1)C1(CCC2)NC(=O)NC1=O (stereo not drawn) ?
OUTPUT: 97.7

INPUT: Which growth reading was recorded for the compound "S=c1[nH]ccn1-c1c(Cl)cccc1Cl" ?
OUTPUT: 99

INPUT: Query (compound): "COc1ccc2c(c1)O/C(=C\c1ccc([N+](=O)[O-])o1)C2=O" ; field requested: growth
OUTPUT: -64.7

INPUT: Any idea what growth was measured for "O=c1c2ccccc2nc(SCCN2CCCCC2)n1CCc1ccccc1" ?
OUTPUT: 81.6

INPUT: Entry "Cc1c(Cl)cccc1NC(=O)c1sc2nc3c(cc2c1N)C(=O)CCC3" has what growth?
OUTPUT: 33.3

INPUT: Fill in the blank: the reported growth of COc1ccc2c(c1)N(CCO)C1=C(C(=O)OC1)C2c1ccc(OC)c(OC)c1 (stereo not drawn) is ____.
OUTPUT: 38.2

INPUT: GET /values?readout=growth&item= "CC(=O)c1cc(Br)ccc1O"
OUTPUT: 103

INPUT: Query: growth; subject: "Nc1ccc2c(c1)Cc1cc(N)c(Br)cc1-2"
OUTPUT: 96.8

INPUT: Item "COc1cc(/C=N/NC(=O)c2ccccc2Nc2cccc(C(F)(F)F)c2)cc(OC)c1OC" has what recorded growth?
OUTPUT: 11.9

INPUT: # query: growth of entry "CCN(CC)CCNc1ccc(CO)c2oc3cc(Cl)ccc3c(=O)c12"
OUTPUT: 70.5

INPUT: What value of growth has been reported for the following compound? "COc1cccc(Cn2c(-c3nonc3N)nc3ccccc32)c1"
OUTPUT: 40.9

INPUT: What value of measured growth is listed for N#CC1=C(Nc2ccccc2Cl)SC(c2ccccc2O)NC1=O (stereo not drawn) ?
OUTPUT: 97.5

INPUT: Consider the compound shown here: "C/C(N)=C(\C#N)C(=O)c1ccccc1" What is its recorded growth?
OUTPUT: 99.8
